FYI, the data here is from patent US20220135701A1.

# measured-on: T1, cynomolgus monkey MerTK (cynomolgus monkey, UniProt A0A2K5V1H9 32-505)
# T1 construct: Soluble analyte in SPR; also called Cyno MerTK
# T1 sequence: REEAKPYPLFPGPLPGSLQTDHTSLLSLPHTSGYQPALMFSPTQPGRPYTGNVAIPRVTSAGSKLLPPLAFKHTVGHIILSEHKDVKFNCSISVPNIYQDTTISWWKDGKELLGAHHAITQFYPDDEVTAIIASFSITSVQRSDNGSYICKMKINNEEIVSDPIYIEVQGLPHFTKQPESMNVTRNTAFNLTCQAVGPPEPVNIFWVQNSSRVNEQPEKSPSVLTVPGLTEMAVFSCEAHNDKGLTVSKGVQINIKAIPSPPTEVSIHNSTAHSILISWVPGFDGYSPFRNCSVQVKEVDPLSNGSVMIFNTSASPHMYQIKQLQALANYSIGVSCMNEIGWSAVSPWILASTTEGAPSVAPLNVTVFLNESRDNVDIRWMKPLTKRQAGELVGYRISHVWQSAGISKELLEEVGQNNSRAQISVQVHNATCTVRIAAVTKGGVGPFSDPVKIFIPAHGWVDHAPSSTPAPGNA
# protocol: SPR BIAcore T200, Ab captured, 37C
Quick list: pKd per entry.
# pKd: negative log10 of molar concentration; output just the value

These recorded examples may help you get a feel for the data.
>  <binder>
h9E3.FN.v1 (antibody, V domains shown, also called h9E3.FN.V1 (Parent); 9E3.FN Humanized mAb V1) VH: EQQLVESGGGLIQPGGSLRLSCAVSGFSLSSNAMSWVRQAPGKGLEWIGIISSSGSTYSASWAKGRFTISKDSSKNTMYLQMNSLRAEDTAVYFCARVGFFVGYGAYDYGIIHRLDLWGQGTLVTVSS VL: DAQLTQSPSTLSASVGDRVTITCQSSKSIYNNNWLSWYQQKPGKPPKLLIYDASDLASGVPSRFSGSGSGTEFTLTISSLQPDDFATYYCAGGYSGDSDYAFGGGTKVEIK

>  <reported-result>
8.32

$$$$
>  <binder>
h9E3.FN.v16 (antibody, V domains shown, Humanized, human IgG1; also called 9E3.FN Humanized polished mAb) VH: EVQLVESGGGLIQPGGSLRLSCAASGFSLSSNAMSWVRQAPGKGLEWVSIISSSGSTYSASWAKGRFTISKDNSKNTLYLQMNSLRAEDTAVYYCARVGFFVGYGAYDYGIIHRLDLWGQGTLVTVSS VL: DIQLTQSPSTLSASVGDRVTITCQSSKSIYNNNWLSWYQQKPGKPPKLLIYDASDLASGVPSRFSGSGSGTEFTLTISSLQPDDFATYYCAGGYSGDSDYAFGGGTKVEIK

>  <reported-result>
8.60

$$$$
>  <binder>
h10F7.v16 (antibody, V domains shown, Humanized, human IgG1; also called 10F7 Fully Humanized; 10F7 Humanized polished mAb) VH: EVQLVESGGGLVQPGGSLRLSCAVSGFSLSGYAMSWVRQAPGKGLEYIGVISSSGSSYYPSWAKGRFTISKDNSKNTLYLQMGSLRAEDMAVYYCARVQFYVGYAVYGYGIIDRLDLWGQGTLVTVSS VL: DIVLTQSPDSLAVSLGERATINCQSSKSVYNNNWLSWYQQKPGQPPKLLIYRASTLESGVPDRFSGSGSGTDFTLTISSLQAEDVAVYFCAGGYSSSSSANAFGGGTKVEIK

>  <reported-result>
8.68

$$$$

Provide measured pKd value, entry: h10F7.v1 (antibody, V domains shown, also called h10F7.V1 (Parent); 10F7 Humanized mAb V1) VH: EQQLVESGGGLVQPGGSLRLSCAVSGFSLSGYAMSWVRQAPGKGLEYIGVISSSGSSYYPSWAKGRFTISKDSSKNTVYLQMGSLRAEDMAVYFCARVQFYVGYAVYGYGIIDRLDLWGQGTLVTVSS VL: DAVLTQSPDSLAVSLGERATINCQSSKSVYNNNWLSWYQQKPGQPPKLLIYRASTLESGVPDRFSGSGSGTDFTLTISSLQAEDVAVYFCAGGYSSSSSANAFGGGTKVEIK
8.52
